biological target: EPHB2 (UniProt P29323); assay: phosphorylation enrichment, bacterial display (enrichment ratio); higher = better substrate or ligand; peptides without Tyr show the background;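 also: 11-residue human phosphosite peptides and single-mutation variants displayed on the E. coli surface, counted by deep sequencing, each peptide's frequency after selection divided by its frequency in the unselected input library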;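 also: frequency after pTyr selection over input frequency; kinase dosed for 20-30% of maximal phosphorylation in three min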
Sequence (P29323 whole entry, looked up): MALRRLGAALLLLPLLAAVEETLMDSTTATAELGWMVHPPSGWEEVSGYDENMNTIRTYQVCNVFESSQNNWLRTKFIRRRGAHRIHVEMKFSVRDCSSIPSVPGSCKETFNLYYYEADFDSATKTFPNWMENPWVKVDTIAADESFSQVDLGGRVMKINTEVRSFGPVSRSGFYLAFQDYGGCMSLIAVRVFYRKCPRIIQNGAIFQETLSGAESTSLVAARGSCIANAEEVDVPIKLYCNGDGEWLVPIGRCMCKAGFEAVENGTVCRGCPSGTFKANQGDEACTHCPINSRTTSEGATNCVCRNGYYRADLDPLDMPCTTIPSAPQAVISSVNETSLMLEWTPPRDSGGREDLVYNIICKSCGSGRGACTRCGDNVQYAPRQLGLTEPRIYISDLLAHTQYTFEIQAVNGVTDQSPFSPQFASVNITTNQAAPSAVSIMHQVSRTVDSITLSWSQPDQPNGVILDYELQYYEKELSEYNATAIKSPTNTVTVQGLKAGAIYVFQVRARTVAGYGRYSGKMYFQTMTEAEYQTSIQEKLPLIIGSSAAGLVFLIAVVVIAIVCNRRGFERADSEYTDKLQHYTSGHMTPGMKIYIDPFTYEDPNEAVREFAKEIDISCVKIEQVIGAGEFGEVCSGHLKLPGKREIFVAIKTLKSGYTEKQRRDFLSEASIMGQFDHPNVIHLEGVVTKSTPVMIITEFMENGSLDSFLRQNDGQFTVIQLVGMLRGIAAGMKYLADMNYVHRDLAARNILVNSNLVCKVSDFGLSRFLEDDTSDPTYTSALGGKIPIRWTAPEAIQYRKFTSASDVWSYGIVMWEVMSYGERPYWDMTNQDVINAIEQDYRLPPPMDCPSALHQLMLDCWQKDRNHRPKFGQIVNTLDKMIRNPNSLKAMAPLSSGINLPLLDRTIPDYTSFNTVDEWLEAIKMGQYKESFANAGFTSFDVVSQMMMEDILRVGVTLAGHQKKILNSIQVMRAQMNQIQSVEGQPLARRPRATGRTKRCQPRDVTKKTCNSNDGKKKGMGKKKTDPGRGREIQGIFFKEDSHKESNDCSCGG
Please respond with reported phosphorylation enrichment for every item in the list.
Could you respond with only the numeric value?

Suppose we examine the sequence KICDWYQRQRP [KRT14_Y151_R148C] ; what phosphorylation enrichment value has been reported?
0.602

// returns reported phosphorylation enrichment for input RNAAEYLLSSG [ABL1_Y139]
0.345

# get_value(readout='phosphorylation enrichment', item= TRSFKYLLLSM [NF1_Y491_YF] )
0.51

Which phosphorylation enrichment value is on record for CKLFQYFLDHL [ATRX_Y1849_YF] ?
0.605

Look at this sequence and give its reported phosphorylation enrichment. VEDHYYEGGIG [TKT_Y564]
0.65

Suppose we examine the sequence AKLNIYKRKVE [VWA3B_Y918] ; what phosphorylation enrichment value has been reported?
0.305

Return reported phosphorylation enrichment; argument: ANVIRYFPTQA [SLC25A4_Y81]
0.502

Please give the measured phosphorylation enrichment for this sequence: VKMLEYLGKDV [CASP5_Y74]
0.651

Can you look up the measured phosphorylation enrichment of PSELYYSKIGP [SMG1_Y2254] for me?
2.91

What does the record list as phosphorylation enrichment for KLLPEYPGVLS [DHFR2_Y163] ?
0.399

What value of phosphorylation enrichment has been reported for the following sequence? LEIETYRRLRD [KRT12_Y429_L433R]
0.559

Any idea what its phosphorylation enrichment is? The sequence is SPFMLYQFLKQ [RPAP3_Y567_D564Y_YF]
2.73

Returns the measured phosphorylation enrichment for the input sequence. Input: PPEFSYGLQTQ [SRA1_Y35_Q32E]
0.802

Field request: phosphorylation enrichment | item: APGNAYGDAGF [SYP_Y250_D248N_YF]
0.313
